- tested-target: Rap guanine nucleotide exchange factor 4 (Homo sapiens)
- test-name: Confirmatory qHTS for agonist of cAMP-regulated guanine nucleotide exchange factor 4 (EPAC2) (AID 1645884);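 also: nucleotide exchange releases bodipy-GDP from Rap1 and this lowers its fluorescence; nearly all actives have a fitted effect of over 65% in size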; as to activation: % is scaled to controls: 0 for no effect and ±100 for the full control effect
- details: EPAC2 GEF activity, Rap1B-BODIPY-GDP fluorescence; series mostly up to 154 µM
Results filed as inconclusive are left out. The source made the active and inactive calls. Calls follow the shape of the dose curve; as a rule, active = well fitted activation curve with a large enough effect; inconclusive = small, poorly fitted or top-dose-only effect; inactive = no such curve, though single readings can be large or run the other way.
Assign a class; possible classes are active, inactive

Status in this test for CC(=O)OC1CC2C(C)(C)CCC(=O)[C@@]2(C)C2CC[C@@]3(C)C(c4ccoc4)OC(=O)C4OC43[C@]12C (stereo not given in full) ?
inactive

How was "N#CCCn1c(=O)c(-c2cccs2)nc2cnc(N3CCOCC3)nc21" classified in this test?
inactive

What did the test return for "CN(C)c1ncc2nc(-c3ccc(F)cc3)c(=O)n(-c3ccccc3)c2n1" ?
inactive

What was the test verdict on Cc1cccc2c3c(ccc12)C1=C(C(=O)C3=O)C(C)CO1 (stereo not given) ?
inactive

What did the test return for "COc1cc2ccc(=O)oc2cc1O" ?
inactive

Record request — test call for "CCCCCc1c2c(cc(O)c1C(=O)O)OC(=O)c1cc(C(=O)CCCC)c(OC)cc1O2"
inactive

Could you please tell me the result logged for "N#CCCn1c(=O)c(-c2ccc(Cl)cc2)nc2cnc(Nc3ccccc3)nc21" in this assay?
active

Please state the recorded outcome for this compound: "COc1ccccc1CNc1ncnc2ccc(-c3cccnc3)cc12"
inactive

I would be grateful if you could indicate the recorded call for "COc1ccc(C(=O)N2CCC[C@@]3(CCN(Cc4cc(C(F)(F)F)cc(C(F)(F)F)c4)C3)C2)cc1" .
inactive

Write down the call the test reported for this compound. Item: "COC(=O)c1c(C)c2c(c(C)c1O)OC(=O)c1c(C)c(Cl)c(O)c(Cl)c1O2"
inactive

----------
- test-name: qHTS Assay for Lipid Storage Modulators (AID 1519); also: % is scaled to controls: 0 for no effect and ±100 for the full control effect
- details: Drosophila S3 cells, BODIPY lipid droplet/cell ratio, laser cytometry; at 57.5 µM (top of the series); cells loaded with oleic acid
Records with an inconclusive call do not appear.
parameter-measured: activity change, negative = inhibition (%)
Just the number please, in %, no unit attached.

Check the records and state activity change, negative = inhibition for "O=C(c1ccco1)N1CCC2(CCN(Cc3ccncc3)CC2)CC1"
6.5

Give recorded activity change, negative = inhibition. "COCC(=O)N1CCC2(CCCN(Cc3ccccc3)C2)CC1"
2.23

Give the value of activity change, negative = inhibition reported for the following: "COc1ccccc1-c1nccc(NCc2ccccc2)n1"
1.38

Give recorded activity change, negative = inhibition. "CNc1nc(-c2ccccc2C(F)(F)F)nc2ccccc12"
5.47

Return reported activity change, negative = inhibition. Input molecule: "O=C(c1ccncc1)N1CCC2(CCCN(Cc3ccncc3)C2)CC1"
2.08

Give recorded activity change, negative = inhibition. "O=c1c(-c2ccc(F)cc2)nc2cnc(N3CCOCC3)nc2n1C1CC1"
5.31

State, in one line, measured activity change, negative = inhibition of "Cc1noc(C)c1C(=O)N1CCC2(CCCN(Cc3ccc(C#N)cc3)C2)CC1"
6.31

Output measured activity change, negative = inhibition for this item: "Cn1cccc1C(=O)N1CCC2(CCN(Cc3ccncc3)CC2)CC1"
4.51

Output activity change, negative = inhibition of CC1(C)C=CC(=O)[C@]2(C)C1CC(=O)[C@]1(C)C2CC[C@@]2(C)C(c3ccoc3)OC(=O)C3OC321 (stereo partly specified)
-11.5

Output activity change, negative = inhibition of "COc1ccc(CNc2nc(-c3ccoc3)nc3ccccc23)c(OC)c1"
11

Input N[C@H](C(=O)O)C(O)C(O)C(O)CO (stereo partly specified) , output reported activity change, negative = inhibition.
2.74

----------
- tested-target: Cytochrome P450 2D6 (Homo sapiens)
- test-name: qHTS Assay for Inhibitors and Substrates of Cytochrome P450 2D6 (AID 891); also: nearly all actives have a fitted effect of over 60% in size
- details: recombinant CYP2D6, luciferin-ME EGE luminescence; series mostly up to 57.1 µM
- Description: NIH Molecular Libraries Screening Centers Network [MLSCN] NIH Chemical Genomics Center [NCGC] The P450 gene superfamily is involved in the metabolism and clearance of xenobiotics. […] The luciferin is then measured by luminescence after the addition of a luciferase detection reagent. […] Inhibitors and some substrates limit the production of luciferin, and decrease measured luminescence. […]
Results filed as inconclusive are left out. The source made the active and inactive calls. Calls follow the shape of the dose curve; as a rule, active = well fitted inhibition curve with a large enough effect; inconclusive = small, poorly fitted or top-dose-only effect; inactive = no such curve, though single readings can be large or run the other way.
Answer with one of the outcomes given here: True for active, False for inactive

For "COc1ccccc1CN1CC2(CCN(S(=O)(=O)c3ccccc3)CC2)C1" , which call appears in the assay record?
False

What did this assay record as the result for "COc1cc2ccc(=O)oc2cc1O" ?
False

Outcome? "O=C(c1ccco1)N1CCC[C@@]2(CCN(C(c3ccccc3)c3ccccc3)C2)C1"
True

Tell me the recorded outcome of this test for "Cn1cccc1C(=O)N1CCC2(CC1)CN(C(c1ccccc1)c1ccccc1)C2" .
True

Given "COCC(=O)N1CCC[C@@]2(CCN(C(c3ccccc3)c3ccccc3)C2)C1" , state the outcome it received in this test.
True

What was the test verdict on "CN(C)Cc1ccccc1-c1cc(NCc2cccs2)ncn1" ?
True

Please let me know the test result on file for "COc1ccccc1CN1CCCC2(CCN(C(=O)c3ccco3)CC2)C1" .
True

Recorded test outcome, item "COc1ccccc1-c1nc(N(C)C)c2ccccc2n1"
True

Each molecule tested received a call. Report the one for "COc1ccccc1CN1CCC2(CC1)CCN(S(C)(=O)=O)CC2" .
True

Returns: the outcome recorded for "COc1ccc2[nH]cc(CCNc3ccnc(-c4ccc5c(c4)OCO5)n3)c2c1" in this assay.
True

What did this assay record as the result for "CCN1CCC[C@@H]1CNC(=O)c1cc(S(N)(=O)=O)ccc1OC" ?
False

----------
- test-name: Stat Signaling Pathway (AID 446);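 also: ME-180 cervical cancer cells given 40 pM IL-6 alongside compound; SIE-controlled beta-lactamase reporter measured as 460/530 nm FRET emission ratio; % is scaled to controls: 0 for no effect and ±100 for the full control effect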
- details: ME-180 (cervical carcinoma) SIE beta-lactamase reporter, IL-6 stimulated, 5 h; at 7.69 µM (top of the series) unless noted
Results filed as inconclusive are left out. The source made the active and inactive calls. The call rests on the fitted dose curve; in most records, active means well fitted curve in either direction with a large enough effect (not every such curve was filed as active); inconclusive means small, poorly fitted or top-dose-only effect, or another doubt; inactive means flat fitted curve, though single readings scatter.
Kindly state activity, negative = inhibition for each of the entries shown.

State, in one line, measured activity, negative = inhibition of "CN1CCN(c2ncnc3ccc(-c4cccc(NS(C)(=O)=O)c4)cc23)CC1"
-16.1% (inactive)

Name the recorded activity, negative = inhibition of the item "COc1ccc(NC(=O)N2CC[C@@]3(CCCN(C(=O)c4cccc(F)c4)C3)C2)cc1" in your answer.
-0.331% (inactive)

Return activity, negative = inhibition (reported value) for this compound: "N#Cc1cccc(-c2nc(Nc3ccncc3)c3ccccc3n2)c1"
8.07% (inactive)

Note activity, negative = inhibition for the compound shown: "O=C(O)/C=C\c1ccc(Cn2ccnc2)cc1"
6.45% [at 17.2 µM] (inactive)

Please give the documented activity, negative = inhibition of "CNc1nc(-c2ccccc2C(F)(F)F)nc2ccccc12"
3.95% (inactive)

Output measured activity, negative = inhibition for this item: "O=C(c1cnccn1)N1CCC2(CC1)CCN(c1ccncc1)CC2"
2.83% (inactive)

Fill in activity, negative = inhibition for record "Cc1cccc(CNc2nc(-c3c(C)noc3C)nc3ccccc23)c1"
-28.8% (inactive)

Provide one value: measured activity, negative = inhibition of "COc1ccc(C(=O)N2CCC3(CC2)CN(c2ncccn2)C3)cc1"
-24.2% (inactive)

Quote activity, negative = inhibition reported for "CC(C)CN1CC[C@@]2(CCCN(C(=O)c3cccc(F)c3)C2)C1" please.
6.14% (inactive)

Specify reported activity, negative = inhibition for the compound shown: "O=c1c(CCc2ccccc2)nc2cnc(N3CCOCC3)nc2n1Cc1ccc(F)cc1"
17.6% (inactive)

Provide activity, negative = inhibition value for the following compound: "COc1ccc(Oc2ncc3nc(-c4cccc(C#N)c4)c(=O)n(C)c3n2)cc1"
-2.78% (inactive)

Answer with reported activity, negative = inhibition of "O=C(c1ccco1)N1CCC2(CCN(Cc3cc(C(F)(F)F)cc(C(F)(F)F)c3)CC2)CC1"
0.499% (inactive)

Please supply the value of reported activity, negative = inhibition for the item "COc1ccc(C(=O)N2CCC3(CCN(CC(C)C)CC3)CC2)cc1"
-2.75% (inactive)

Complete the entry with activity, negative = inhibition for "COc1ccccc1CCn1c(=O)c(C)nc2cncnc21"
-13.1% (inactive)

Return the recorded activity, negative = inhibition value; entry: "COc1ccccc1CNc1nc(-c2ccccc2CN(C)C)nc2ccccc12"
-12.4% (inactive)

State its activity, negative = inhibition: "CC(=O)N1CCC2(CCCN(Cc3ccc(C#N)cc3)C2)CC1"
6.73% (inactive)

Identify measured activity, negative = inhibition associated with "COc1ccc2[nH]cc(CCNc3cc(-c4cccnc4)ncn3)c2c1"
-2.74% (inactive)

For the compound "O=S(=O)(c1ccccc1)N1CCC[C@@]2(CCN(c3ncccn3)C2)C1" , give its measured activity, negative = inhibition value.
-4.75% (inactive)

Give the measured activity, negative = inhibition for "COc1cccc(Cn2c(=O)c(-c3cc(F)cc(F)c3)nc3cnc(OC)nc32)c1"
-4.81% (inactive)

Provide measured activity, negative = inhibition value, entry: "CC(C)NC(=O)N1CCCC2(CCN(C(=O)c3ccco3)CC2)C1"
-11.2% (inactive)

Return activity, negative = inhibition (reported value) for this compound: "COc1ccccc1-c1cncnc1NCc1cnc(C)cn1"
4.26% (inactive)

Check the records and state activity, negative = inhibition for "COc1ccccc1CNc1cc(-c2ccccc2Cl)ncn1"
-1.65% (inactive)

Tell me its activity, negative = inhibition given "COCC(=O)N1CCC2(CC1)CCN(c1ccncc1)CC2" as the entry.
16.3% (inactive)

Tell me its activity, negative = inhibition given "Cc1cccc(CNc2ncnc3ccc(-c4ccccc4C#N)cc23)c1" as the entry.
-7.62% (inactive)

Name the recorded activity, negative = inhibition of the compound listed here: "CC(=O)N1CCC2(CC1)CCN(c1cccc(-c3ccccc3)c1)CC2"
18.6% (inactive)

Name the recorded activity, negative = inhibition of the item "CC(=O)NCCNc1ncnc2ccc(-c3ccccc3C#N)cc12" in your answer.
6.69% (inactive)

For "O=C(c1cnccn1)N1CCC2(CC1)CN(c1ncccn1)C2" , write its activity, negative = inhibition.
21.6% (inactive)

Let me know recorded activity, negative = inhibition for "O=c1c(-c2cccc(Cl)c2)nc2cncnc2n1-c1ccccc1" , thanks.
0.546% (inactive)

Note activity, negative = inhibition for the compound shown: "CCN[C@@H]1C[C@H](C)S(=O)(=O)c2sc(S(N)(=O)=O)cc21"
-13.1% [at 17.2 µM] (inactive)

Retrieve activity, negative = inhibition measured for "COc1cccc(-c2cncnc2NCc2ccc(OC)cc2OC)c1" and print it.
-6.14% (inactive)

For the compound "COc1ccccc1CNc1ncncc1-c1ccccc1CN(C)C" , give its reported activity, negative = inhibition.
6.72% (inactive)

Hello, please tell me recorded activity, negative = inhibition for this one: "CS(=O)(=O)N1CCC2(CCCN(Cc3cc(C(F)(F)F)cc(C(F)(F)F)c3)C2)CC1"
5.1% (inactive)

In one line, give reported activity, negative = inhibition of the entry "COc1ccc(C(=O)N2CCC[C@@]3(CCN(c4ccncc4)C3)C2)cc1" .
-6.9% (inactive)

Identify the reported activity, negative = inhibition for the following entry. "CN(Cc1ccco1)c1ccnc(-c2cccnc2)n1"
17.8% (inactive)

State its activity, negative = inhibition for this compound: "COc1ccc(C(=O)N2CCC3(CCN(Cc4cc(C(F)(F)F)cc(C(F)(F)F)c4)CC3)CC2)cc1"
-6.24% (inactive)

Item "CC(=O)NCCNc1ncncc1-c1ccccc1CN(C)C" : provide activity, negative = inhibition
0.764% (inactive)

Recall and state the measured activity, negative = inhibition for "CN1CCN(c2ncc3nc(-c4ccc(F)cc4)c(=O)n(C4CC4)c3n2)CC1" .
18.6% (inactive)

Supply recorded activity, negative = inhibition for "Cn1cccc1C(=O)N1CCC[C@@]2(CCN(C(=O)Nc3cccc(C#N)c3)C2)C1" here.
-3.81% (inactive)

Give activity, negative = inhibition for the following compound: "COc1ccc(C(=O)N2CCC[C@@]3(CCN(C(=O)NC(C)C)C3)C2)cc1"
-9.21% (inactive)

Return reported activity, negative = inhibition. Input compound: "COc1ccccc1CN1CC[C@@]2(CCCN(C(=O)c3cc(C(F)(F)F)cc(C(F)(F)F)c3)C2)C1"
4.98% (inactive)

Annotate the compound "Cn1cccc1C(=O)N1CCC2(CCN(Cc3ccc(C#N)cc3)CC2)CC1" with its measured activity, negative = inhibition.
-2.38% (inactive)

Indicate the recorded activity, negative = inhibition value for this compound: "O=C(c1cccc(F)c1)N1CCC2(CCCN(c3ccccc3)C2)CC1"
-11.8% (inactive)

Fill in activity, negative = inhibition for record "N#Cc1cccc(-c2nccc(-n3ccnc3)n2)c1"
4.18% (inactive)

Could you please provide reported activity, negative = inhibition for "CC(C)CN1CCCC2(CCN(C(=O)c3cnccn3)CC2)C1" ? Thanks!
7.99% (inactive)

For the compound "COc1ccc(C(=O)N2CCC3(CCN(Cc4ccccc4)CC3)CC2)cc1" , give its measured activity, negative = inhibition value.
0.0273% (inactive)
